Sourced from patent US20240174746A1

Examples of binders with documented fold-change in binding over parental HEK293 cells follow.
System Tested: T1, mouse TMEM106B (mouse, UniProt Q80X71 2-275)
T1 construct: Full-length cDNA transiently transfected into HEK293 cells; also called muTMEM106B; murine TMEM106B
Method: flow cytometry, HEK293 cells transiently transfected with murine TMEM106B
Field: numeric (fold). Do not append units.

TM-82 (antibody, V domains shown, Purified from mouse hybridoma) VH: QVQLQQSGAELVRPGTSVRVSCKASGYAFTNYLIEWIKQRPGQGLEWIGVINPGSGITDYSEKFKGKARLTADKSSSTAYMQLSSLTSDDSAVYFCTRSPFITTVVADYWGQGTTVTVSS VL: DVVVTQTPLSLPVSFGDQVSISCRSSQSLANTYGNTYLSWYLHTPGQSPQLLIFGISNRFSGVPDRFSGSGSGTDFTLKISTIKPEDLGVYYCLQGTHPPRTFGGGTKLEMK; 0.88

Could you now look at the following binder, please?
# query: fold-change in binding over parental HEK293 cells of entry TM-76 (antibody, V domains shown, Purified from mouse hybridoma) VH: QVTLKESGPGILQPSQTLSLTCSFSGFSLSTSGMGVSWIRKPSGKGLEWLAHIFWDDDKRYNLFLKSRLTVSKDTSSNQVFLMITSVDTTDTATYYCARMGRQRDYFDYWGQGTSLTVSS VL: QIILTQSPAIMSASLGEEITLTCSASLSISYVHWYQQKSGASPKLLIYGTSNLASGVPSRFSGSGSGTFYSLTISSVEAEDAADYYCHQWSIYRTFGGGTKLEMK
0.7
